target system: FGFR1 (Homo sapiens, UniProt P11362)
Sequence (P11362 22-822): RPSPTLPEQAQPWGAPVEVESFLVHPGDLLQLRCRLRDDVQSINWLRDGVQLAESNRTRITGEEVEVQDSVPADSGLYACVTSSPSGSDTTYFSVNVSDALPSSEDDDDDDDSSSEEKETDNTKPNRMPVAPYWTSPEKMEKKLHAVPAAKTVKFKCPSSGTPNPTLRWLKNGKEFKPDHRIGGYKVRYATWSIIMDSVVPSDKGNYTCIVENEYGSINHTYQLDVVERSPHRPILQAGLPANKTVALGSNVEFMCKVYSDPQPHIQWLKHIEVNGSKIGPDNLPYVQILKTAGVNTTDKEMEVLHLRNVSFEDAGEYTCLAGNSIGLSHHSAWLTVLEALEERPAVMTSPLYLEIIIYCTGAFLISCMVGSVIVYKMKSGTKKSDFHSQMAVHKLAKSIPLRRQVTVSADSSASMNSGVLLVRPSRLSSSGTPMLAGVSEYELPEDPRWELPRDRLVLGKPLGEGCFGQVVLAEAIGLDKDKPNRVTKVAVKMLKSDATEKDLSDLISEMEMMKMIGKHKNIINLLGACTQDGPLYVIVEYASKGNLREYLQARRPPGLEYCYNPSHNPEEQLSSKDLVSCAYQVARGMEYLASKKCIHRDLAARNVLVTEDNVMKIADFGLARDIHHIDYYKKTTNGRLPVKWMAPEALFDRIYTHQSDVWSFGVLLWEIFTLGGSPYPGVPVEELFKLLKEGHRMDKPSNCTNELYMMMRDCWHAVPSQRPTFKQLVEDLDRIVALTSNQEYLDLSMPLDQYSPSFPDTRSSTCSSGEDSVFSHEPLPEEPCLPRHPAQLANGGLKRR
protocol text: ELISA kinase assay (FGFR1 enzymatic assay)
Type: biochemical
assay setup: 1 μmol/L compound, read-out: Enzyme Inhibition (%)
Reported inhibition at 1 µM by item:
Give the number; % is assumed, so skip it.

INSERT INTO measurements (compound, experimental_readout, value) VALUES
  ('COc1cc(OC)c(Cl)c(-c2cc(C(=O)Nc3ccc(C(C)=O)cc3)c3cn[nH]c3c2)c1Cl [Compound 10c]', 'inhibition at 1 µM', 52.9),
  ('COc1cc(OC)c(Cl)c(-c2cc(C(=O)Nc3ccccc3)c3cn[nH]c3c2)c1Cl [Compound 10a]', 'inhibition at 1 µM', 84.1),
  ('COc1cc(NC(=O)c2cc(-c3c(Cl)c(OC)cc(OC)c3Cl)cc3[nH]ncc23)ncn1 [Compound 11d]', 'inhibition at 1 µM', 78.5),
  ('COc1nccc(NC(=O)c2cc(-c3c(Cl)c(OC)cc(OC)c3Cl)cc3[nH]ncc23)n1 [Compound 11e]', 'inhibition at 1 µM', 57.4),
  ('COc1ccc(NC(=O)c2cc(-c3c(Cl)c(OC)cc(OC)c3Cl)cc3[nH]ncc23)cc1 [Compound 10e]', 'inhibition at 1 µM', 68.5),
  ('COc1cc(OC)c(Cl)c(-c2cc(C(=O)Nc3cccc(C(C)=O)c3)c3cn[nH]c3c2)c1Cl [Compound 10b]', 'inhibition at 1 µM', 82.4);

Query block: Please list inhibition at 1 µM recorded for the compound COc1cc(NC(=O)c2cc(-c3c(Cl)c(OC)cc(OC)c3Cl)cc3[nH]ncc23)ccn1 [Compound 11b]
Result block: 84.3

Query block: Please list inhibition at 1 µM recorded for the compound COc1ccnc(NC(=O)c2cc(-c3c(Cl)c(OC)cc(OC)c3Cl)cc3[nH]ncc23)c1 [Compound 11c]
Result block: 80

Query block: Please list inhibition at 1 µM recorded for the compound COc1cccc(NC(=O)c2cc(-c3c(Cl)c(OC)cc(OC)c3Cl)cc3[nH]ncc23)n1 [Compound 11a]
Result block: 79.2

Query block: Please list inhibition at 1 µM recorded for the compound COc1cccc(NC(=O)c2cc(-c3c(Cl)c(OC)cc(OC)c3Cl)cc3[nH]ncc23)c1 [Compound 10d]
Result block: 78.4
